B1: SPDEF (parent)
chain: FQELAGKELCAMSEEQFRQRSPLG

- Variants of: B1
- Assay Procedure: protein stability index of a GFP-peptide fusion (GPS, HEK-293T) (PSI 1-6); higher = more stable;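 also: lentivirally expressed fusions sorted by FACS into six bins by GFP to DsRed ratio, PSI derived from sequencing read proportions per bin multiplied by bin number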
- Condition Details: c terminus: a fixed tail appended
Measured protein stability index determines class: Low (below 2), Mid (2 to below 3), High (3 or more)

// query Class? Entry: `FQELAGKELCAMSEEQFRQRFPLG`
// result High

// query Kindly identify the class of `KQELAGKELCAMSEEQFRQRSPLG` .
// result High

// query Which protein stability index band matches `FQELAGKELLAMSEEQFRQRSPLG` ?
// result Mid

// query Place this variant in its band: `FQELAGKELCAMSKEQFRQRSPLG`
// result Mid

// query Sort `FQELAYKELCAMSEEQFRQRSPLG` into one of the categories.
// result Low

// query For `FQELADKELCAMSEEQFRQRSPLG` , which protein stability index bin applies?
// result High

// query Lab note: sort `FQEQAGKELCAMSEEQFRQRSPLG` into the matching protein stability index band.
// result High

// query Class (by measured protein stability index) for `FQELAGKELCAMSEEQFRQQSPLG`
// result Mid

// query Given `FQELAGKELCAMSVEQFRQRSPLG` , name the class its protein stability index places it in.
// result Mid

// query Bin this entry: `FQELAGKELCVMSEEQFRQRSPLG`
// result Low
